Provenance of the data: the supplement of paper PMC7125110

B1: glmS ribozyme (parent)
chain: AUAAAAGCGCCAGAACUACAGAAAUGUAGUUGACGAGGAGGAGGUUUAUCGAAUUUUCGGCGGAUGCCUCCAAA

variants of: B1; assay: self-cleavage kobs at 2500 uM GlcN6P; higher = faster cleavage; RNA array; settings: with glucosamine-6-phosphate
This sample holds only a part of the variants without activity.
value.type: self-cleavage kobs at 2500 uM GlcN6P (s⁻¹)
All answers are understood in s⁻¹, so give the number only.

AUAAAAGCGCCCGAACUACAGAAAUGUAGUUGACGAGGAGGAGGUUUCUCGAAUUUUCGGCGGAUGCCUCCAAA	4.89e-05
AUAAAAGCGCCUGGACUACAGAAAUGUAGUUUACGAGGAGGAGGUUUAUCGAAUUUUCGGCGGAUGCCUCCAAA	0.000861
AUAAAAGCGCCUGAACUACAGAAAUGUAAUUGACGAGGAGGAGGUUUAUCGAAUUCUCGGCGGAUGCCUCCAAA	0.0018
AUAAAAGCGCCAGAACUACAGAAAUGUAGCUCACGAGGAGGAGGUUUAUCGAAUUUUCGGCGGAUGCCUCCAAA	0.000157
AUAAAAGCGCCGGAACUACAGAAAUGUAGUUGACGAGGAGGAGGAUUAUCGAAUUUUCGGCGGAUGCCUCCAAA	0.000811

Next variant, self-cleavage kobs at 2500 uM GlcN6P to be filled in.
Exercise: Data request, read-out self-cleavage kobs at 2500 uM GlcN6P, for AUAAAAGCGCCAGAACUACAGAAAUGUAGUUGACGAGGAGGAGGUUUGUCGAAGUUUCGGCGGAUGCCUCCAAA
Key: 0.000134
